Biological target: UniProt Q8NBP7
Sequence (Q8NBP7 153-692): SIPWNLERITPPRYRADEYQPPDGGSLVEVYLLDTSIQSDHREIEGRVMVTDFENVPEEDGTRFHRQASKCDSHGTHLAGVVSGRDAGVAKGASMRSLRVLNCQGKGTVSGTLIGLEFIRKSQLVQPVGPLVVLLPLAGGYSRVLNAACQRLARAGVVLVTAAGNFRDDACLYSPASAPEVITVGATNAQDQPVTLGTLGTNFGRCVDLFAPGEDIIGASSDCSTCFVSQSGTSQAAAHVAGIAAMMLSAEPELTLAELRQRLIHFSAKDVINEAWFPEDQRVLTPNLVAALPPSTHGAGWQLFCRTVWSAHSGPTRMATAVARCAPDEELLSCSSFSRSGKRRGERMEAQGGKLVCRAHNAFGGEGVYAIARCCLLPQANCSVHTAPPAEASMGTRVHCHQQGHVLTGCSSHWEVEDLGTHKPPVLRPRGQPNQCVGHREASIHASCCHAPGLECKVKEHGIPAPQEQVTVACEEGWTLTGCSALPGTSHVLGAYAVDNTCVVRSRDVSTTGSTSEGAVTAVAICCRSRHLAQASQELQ
Assay: Differential scanning calorimetry (DSC) assay, direct binding / thermal stabilization of PCSK9
Conditions: Tm(with compound)−Tm(no compound); 2 μM PCSK9, 300 μM test compound
Experimental: Differential scanning calorimetry (DSC) was used as a biophysical method to confirm direct binding to PCSK9. A solution containing 2 μM PCSK9 with or without 300 μM test compound in 25 mM HEPES (pH 7.5)/150 mM NaCl/1 mM CaCl2/3.75% DMSO was transferred to the sample cell of the DSC instrument, while buffer alone was placed in the reference cell. […] Each thermogram was analyzed to provide the melting temperature (Tm) of the protein. […]
MEASURED ATTRIBUTE: ΔTm at 300 µM (°C)
Reply numerically in °C, unit not repeated.

Examples from the recorded data:
1) Cc1noc(COc2cc3c(cc2Oc2ccc(-c4ccc(C(=O)O)cc4)c(F)c2)[C@@](C)(CC(=O)Nc2nccs2)NCC3)n1 | 7.2
2) COc1cc2c(cc1Oc1ccc(-c3ccc(C(=O)O)cc3F)cc1)[C@@](C)(CC(=O)Nc1nccs1)NCC2 | 5.37
3) COCCOCc1cn(CCOc2cc3c(cc2Oc2ccc(C(=O)O)c(F)c2)[C@@](C)(CC(=O)Nc2nccs2)NCC3)nn1 | 7.18

Query block: Report ΔTm at 300 µM for CC(=O)NCc1cn(CCOc2cc3c(cc2Oc2ccc(C(=O)O)c(F)c2)[C@@](C)(CC(=O)Nc2nccs2)NCC3)nn1 please.
Result block: 6.48

Query block: Lookup C[C@]1(CC(=O)Nc2nccs2)NCCc2cc(OCc3ncccn3)c(Oc3ccc(C(=O)O)c(F)c3)cc21
Result block: 7.56

Query block: Lookup C[C@]1(CC(=O)Nc2nccs2)NCCc2cc(OCC(=O)O)c(Oc3ccc(C(=O)O)c(F)c3)cc21
Result block: 7.83

Query block: Lookup C[C@]1(CC(=O)Nc2nccs2)NCCc2cc(OCC3CCCCO3)c(Oc3cccc(F)c3)cc21 (single isomer, unassigned) [Example 80]
Result block: 6.09

Query block: Lookup C[C@]1(CC(=O)Nc2nccs2)NCCc2cc(OCC3CCCCO3)c(Oc3ccc(C(=O)Nc4n[nH]c5ncccc45)c(F)c3)cc21 (some centres unmarked) [Example 74]
Result block: 7.08
